Give measured viability at 10 µM for each item. Keep answers brief.
test: in vitro; parameters: cytotoxicity, per cent cell growth of WI-38 fibroblasts; conditions: human, wi-38 cells; read-out: % cell growth W1-38 at 10uM
Give just the numeric value; % need not be written.

// sample Nc1nnc(NCCc2ccccc2)s1 [4n] , its viability at 10 µM was 66.1

The compound COc1cc(CNc2nnc(N)s2)cc(OC)c1OC [4k] showed viability at 10 µM equal to 71.2

Record summary for Nc1cccc(-c2ccc(-c3nnc(N)s3)cc2)c1 [2b] : reported viability at 10 µM = 73.4

Consider Nc1nnc(N)s1 [4a] . Its measured viability at 10 µM is 81.3

# viability at 10 µM (compound: CN(C)CCc1nnc(N)s1 [3i] ) is 114

Briefly, viability at 10 µM measured for COc1ccccc1-c1nnc(N)s1 [1h] : 129

So for Nc1nnc(CCC(=O)c2ccccc2)s1 [3j] , the logged viability at 10 µM turned out to be 113

Measured viability at 10 µM of Nc1nnc(-c2cc(O)c(O)c(O)c2)s1 [1f] : 111

Entry under test: C[C@@H](c1cccc(C(=O)c2ccccc2)c1)c1nnc(N)s1 [3f] . Its viability at 10 µM was 127

The reported viability at 10 µM of the compound CN(C)C(=O)NCc1ccc(-c2nnc(N)s2)cc1 [1p] was 118

For reference, reported viability at 10 µM for Nc1nnc(NCc2ccc(-c3ccccc3)cc2)s1 [4m] stands at 95.9

The recorded viability at 10 µM for entry Nc1nnc(CCC(=O)c2cccs2)s1 [3k] equals 92

viability at 10 µM recorded for this compound, Cc1nnc(N)s1 [3a] , is 130

Summary for this compound, Nc1nnc(NCCc2cccs2)s1 [4o] : viability at 10 µM is 96.7

// field: viability at 10 µM; key: Nc1nnc(NCc2ccccc2)s1 [4b] ; value = 124

Summary for this compound, Nc1nnc(/C=C/c2ccccc2)s1 [3h] : viability at 10 µM is 111

Nc1nnc(-c2ccc(-c3nnc(N)s3)c(N)c2)s1 [1o] has a reported viability at 10 µM of 103

Briefly, viability at 10 µM measured for Nc1nnc(Cc2cccs2)s1 [3d] : 105

COc1cccc(CNc2nnc(N)s2)c1 [4i] yielded viability at 10 µM of 129

# compound Nc1nnc(-c2ccco2)s1 [1s] ; its viability at 10 µM = 138

Notebook: Nc1nnc(-c2ccccc2)s1 [1a] , viability at 10 µM read as 101

Consider Nc1nnc(Cc2ccccc2)s1 [3b] . Its measured viability at 10 µM is 120

Please fill in: viability at 10 µM reported for Nc1nnc(NCCCc2ccccc2)s1 [4q] = 111

Kindly note the recorded viability at 10 µM for Nc1nnc(-c2cccc(-c3ccc4c(c3)OCO4)c2)s1 [2g] , which is 130

Short answer for COc1ccc(-c2nnc(N)s2)cc1OC [1c] : viability at 10 µM was 110

// viability at 10 µM lookup, compound = Nc1nnc(-c2cccc(Br)c2)s1 [1i] , result: 111

For Nc1nnc(Cc2ccc3ccccc3c2)s1 [3e] the compound record lists viability at 10 µM as 105

Recorded result, COc1cc(-c2nnc(N)s2)cc(OC)c1OC [1e] , viability at 10 µM: 105

Item: Nc1nnc(-c2ccc(Cl)c(Cl)c2)s1 [1l] | viability at 10 µM: 77.8

Measured viability at 10 µM, COC(=O)C(Cc1ccccc1)Nc1nnc(N)s1 (stereo not shown) [4p] : 114

Looking up Nc1nnc(-c2cccc([N+](=O)[O-])c2)s1 [1k] , I see its viability at 10 µM listed as 108

Notebook: Nc1nnc(NCc2ccccc2Cl)s1 [4d] , viability at 10 µM read as 55.4

The value of viability at 10 µM measured for the compound Nc1nnc(-c2ccc(-c3ccccc3)cc2)s1 [2a] turned out to be 90.7

compound Nc1nnc(N2CCC(Cc3ccccc3)CC2)s1 [4r] , viability at 10 µM observed: 92.7

Given item NCc1ccc(-c2nnc(N)s2)cc1 [1b] , the value recorded as its viability at 10 µM is 98.7

Query Nc1nnc(NCc2ccc(C(F)(F)F)cc2)s1 [4f] yields viability at 10 µM of 80.9

Nc1nnc(NCc2ccc(Cl)c(Cl)c2)s1 [4e] yielded viability at 10 µM of 68.5

Record COc1ccc(CNc2nnc(N)s2)cc1OC [4j] , field viability at 10 µM: 129

// sample Nc1nnc(-c2cccc(-c3ccccc3)c2)s1 [2c] , its viability at 10 µM was 87.2

// field: viability at 10 µM; key: Nc1nnc(Cc2cccc([N+](=O)[O-])c2)s1 [3c] ; value = 88.4

// sample Cc1ccc(CNc2nnc(N)s2)cc1 [4l] , its viability at 10 µM was 106

Notebook: COc1cccc(OC)c1-c1nnc(N)s1 [1g] , viability at 10 µM read as 80.3

Value of viability at 10 µM reported for the compound Nc1cccc(-c2nnc(N)s2)c1 [1j] is 92.5

compound N#Cc1ccc(CNc2nnc(N)s2)cc1 [4h] , viability at 10 µM observed: 107

Documented viability at 10 µM of Nc1nnc(NCc2ccc(F)cc2)s1 [4g] : 97.1

Just so you know, measured viability at 10 µM for Nc1nnc(-c2ccc(OCc3ccc(Cl)c(Cl)c3)cc2)s1 [1r] came out at 68.7

// viability at 10 µM value for Nc1nnc(-c2ccc(O)c(O)c2)s1 [1d, 3′,4′-dihydroxy-phenyl-1,3,4-thiadiazole] : 99.9

Measured viability at 10 µM of COc1ccc(-c2ccc(-c3nnc(N)s3)nc2)cc1 [1t] : 107

So, Nc1nnc(CCc2ccccc2)s1 [3g] ? Its viability at 10 µM was 101

So for Nc1nnc(NCc2cccs2)s1 [4c] , the logged viability at 10 µM turned out to be 96.3

The recorded viability at 10 µM for entry COc1ccc(-c2cccc(-c3nnc(N)s3)c2)cc1OC [2f] equals 87.5

Entry COCCCNc1nnc(N)s1 [4s] ; viability at 10 µM = 89.6

* * *

Please respond with reported pIC50 for every item in the list.
Target: TbPTR1 (Trypanosoma brucei brucei)
Construct: made in house
Sequence (O76290 1-268): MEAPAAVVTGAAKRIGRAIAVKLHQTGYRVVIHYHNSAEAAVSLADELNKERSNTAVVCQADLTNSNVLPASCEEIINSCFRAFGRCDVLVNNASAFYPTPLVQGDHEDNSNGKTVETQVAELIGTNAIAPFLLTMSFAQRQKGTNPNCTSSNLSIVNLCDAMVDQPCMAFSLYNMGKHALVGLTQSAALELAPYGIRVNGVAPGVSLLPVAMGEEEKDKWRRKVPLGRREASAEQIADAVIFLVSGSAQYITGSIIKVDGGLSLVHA
Experiment: biochemical
Settings: dose-response 0.001-100 μM
Formally, pIC50 is defined as -log10 of the concentration c, with c in mol/L.

// field: pIC50; key: Nc1nnc(NCc2ccc(-c3ccccc3)cc2)s1 ; value = 4.80

The measured pIC50 associated with Nc1nnc(NCc2ccc(C(F)(F)F)cc2)s1 reads 4.32

GET /value?item= COc1cccc(CNc2nnc(N)s2)c1 &field=pIC50 returns 4.25

# pIC50 of Nc1nnc(NCCc2ccccc2)s1 = 4.21

# pIC50 of Nc1nnc(NCCc2cccs2)s1 = 4.60

pIC50 reported for this compound Nc1nnc(NCc2ccc(Cl)c(Cl)c2)s1 : 4.51

The compound identified as Nc1nnc(NCc2cccs2)s1 registered its pIC50 at 3.95

The compound listed as Nc1nnc(NCCCc2ccccc2)s1 has a reported pIC50 of 4.24

Lab note: measured pIC50 of Nc1nnc(-c2cc(O)c(O)c(O)c2)s1 was 4.39

Item: N#Cc1ccc(CNc2nnc(N)s2)cc1 | pIC50: 4.15

* * *

target: hDHFR (Homo sapiens, UniProt P00374); construct: gene DHFR; assay: biochemical; design: human DHFR enzyme inhibition; details: 10 uM
Sequence (P00374 whole entry): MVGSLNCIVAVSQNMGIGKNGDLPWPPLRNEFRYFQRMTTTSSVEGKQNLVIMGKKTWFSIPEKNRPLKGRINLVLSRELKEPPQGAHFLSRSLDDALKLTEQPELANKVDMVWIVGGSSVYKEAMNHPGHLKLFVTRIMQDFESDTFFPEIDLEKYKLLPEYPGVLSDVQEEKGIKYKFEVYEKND
Could you label it yes if measured inhibition at 10 µM is 20% or higher, and no otherwise?

## Task Has COc1ccc(-c2ccc(-c3nnc(N)s3)nc2)cc1 [1t] a recorded inhibition at 10 µM greater than or equal to 20%?
## Result no

## Task Could you verify whether the entry Nc1cccc(-c2ccc(-c3nnc(N)s3)cc2)c1 [2b] shows inhibition at 10 µM of no less than 20%?
## Result no

## Task Can Nc1nnc(-c2ccc(Cl)c(Cl)c2)s1 [1l] be said to have inhibition at 10 µM at or above 20%?
## Result no

## Task Reported inhibition at 10 µM reaches at least 20% for Nc1nnc(/C=C/c2ccccc2)s1 [3h] ?
## Result no

## Task Given the entry Nc1nnc(-c2cccc(-c3cccc(C(F)(F)F)c3)c2)s1 [2d] , answer whether its inhibition at 10 µM meets or surpasses 20%.
## Result yes

## Task Hi team, for Nc1nnc(-c2ccc(-c3nnc(N)s3)c(N)c2)s1 [1o] , is the recorded inhibition at 10 µM at or above 20%?
## Result no

## Task Entry Nc1nnc(-c2cccc(-c3ccc(C(F)(F)F)cc3)c2)s1 [2e] : is its inhibition at 10 µM no less than 20%?
## Result yes

## Task Textbook exercise: given the entry Nc1nnc(-c2cccc(-c3ccc4c(c3)OCO4)c2)s1 [2g] , state whether its inhibition at 10 µM is greater than or equal to 20%.
## Result no

Just for reference, paper PMC5623949 is where these values come from.
